The origin of these recorded values is ChEMBL document CHEMBL2380235.

biological target: Kappa-type opioid receptor (Homo sapiens) (UniProt P41145); experiment: Antagonist activity at human kappa opioid receptor expressed in CHO cells assessed as inhibition of U69,593-stimulated [35S]GTPgammaS binding; type: functional, cell-based
Sequence (P41145 whole entry): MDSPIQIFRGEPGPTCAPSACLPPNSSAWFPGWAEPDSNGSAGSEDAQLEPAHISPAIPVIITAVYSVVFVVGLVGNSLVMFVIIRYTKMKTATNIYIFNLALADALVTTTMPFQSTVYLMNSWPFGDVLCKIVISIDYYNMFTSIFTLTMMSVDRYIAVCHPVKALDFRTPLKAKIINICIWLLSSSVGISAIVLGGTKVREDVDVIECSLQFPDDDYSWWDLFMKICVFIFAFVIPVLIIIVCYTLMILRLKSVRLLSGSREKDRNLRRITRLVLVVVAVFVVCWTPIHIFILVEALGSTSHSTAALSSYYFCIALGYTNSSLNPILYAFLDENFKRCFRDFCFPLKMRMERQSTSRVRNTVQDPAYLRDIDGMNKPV
measured.quantity: log10 of Ke (log10 of the value in nM)
Quick note: numbers are log10 of Ke, with nM as the unit.

Some entries whose results are on file:
molecule_smiles=Cc1cccc(Oc2ccc(C(=O)N[C@H](CN3CCN(c4cccc(O)c4)[C@@H](C)C3)C(C)C)cc2Cl)c1 measured_quantity="log10 of Ke" test_value=-0.54
molecule_smiles=CC(C)[C@@H](CN1CCN(c2cccc(O)c2)[C@@H](C)C1)NC(=O)c1ccc(Oc2ccccc2)nc1 measured_quantity="log10 of Ke" test_value=0.20
molecule_smiles=Cc1cccc(Oc2ccc(C(=O)N[C@H](CN3CCN(c4cccc(O)c4)[C@@H](C)C3)C(C)C)cc2C)c1 measured_quantity="log10 of Ke" test_value=-0.80
molecule_smiles=CC(C)[C@@H](CN1CCN(c2cccc(O)c2)[C@@H](C)C1)NC(=O)c1ccc(Oc2ccc(O)cc2)cc1 measured_quantity="log10 of Ke" test_value=0.93
molecule_smiles=COc1cc(C(=O)N[C@H](CN2CCN(c3cccc(O)c3)[C@@H](C)C2)C(C)C)ccc1Oc1cccc(C)c1 measured_quantity="log10 of Ke" test_value=-0.60

What the record says about Cc1cccc(Oc2ccc(C(=O)N[C@H](CN3CCN(c4cccc(O)c4)[C@@H](C)C3)C(C)C)c(C)c2)c1 : log10 of Ke is -0.19

What the record says about COc1ccc(C(=O)N[C@H](CN2CCN(c3cccc(O)c3)[C@@H](C)C2)C(C)C)cc1OC : log10 of Ke is 1.91

What the record says about Cc1cccc(Oc2ccc(C(=O)N[C@H](CN3CCN(c4cccc(O)c4)[C@@H](C)C3)C(C)C)cc2)c1 : log10 of Ke is -0.77
